systemName: Serine/threonine-protein kinase pim-1 (Homo sapiens, UniProt P11309)
Sequence (P11309 whole entry): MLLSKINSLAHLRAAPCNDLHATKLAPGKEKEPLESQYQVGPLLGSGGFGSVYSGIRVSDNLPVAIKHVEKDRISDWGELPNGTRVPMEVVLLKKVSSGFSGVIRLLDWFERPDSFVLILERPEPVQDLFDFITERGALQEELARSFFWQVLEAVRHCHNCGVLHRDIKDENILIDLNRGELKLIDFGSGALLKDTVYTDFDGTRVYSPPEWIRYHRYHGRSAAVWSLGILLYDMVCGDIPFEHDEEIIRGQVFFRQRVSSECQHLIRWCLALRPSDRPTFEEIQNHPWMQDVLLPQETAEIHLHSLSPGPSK
experimentNotes: Inhibition of human recombinant Pim1
pIC50: −log10 of the molar value.
Measured pIC50 accompanies every entry in the list below.

{"smilesNotation": "O=C1NC(Nc2ccc3c(c2)OCCO3)=N/C1=C\\c1ccc2c(c1)OCO2", "qual": "<", "pIC50": 5.00}
{"smilesNotation": "C=CCNC1=N/C(=C\\c2ccc3c(c2)OCO3)C(=O)N1C", "qual": "=", "pIC50": 5.38}
{"smilesNotation": "CN1C(=O)/C(=C/c2ccc3c(c2)OCO3)N=C1Nc1ccccc1", "qual": "=", "pIC50": 5.59}
{"smilesNotation": "CN1C(=O)/C(=C/c2ccc3c(c2)OCO3)N=C1NCCN1CCOCC1", "qual": "=", "pIC50": 5.21}
{"smilesNotation": "CN1C(=O)/C(=C/c2ccc3c(c2)OCO3)N=C1NCc1ccc2c(c1)OCO2", "qual": "=", "pIC50": 6.23}
{"smilesNotation": "CN1C(=O)/C(=C/c2ccc3c(c2)OCO3)N=C1Nc1ccc2c(c1)OCCO2", "qual": "=", "pIC50": 5.66}
{"smilesNotation": "CCCNC1=N/C(=C\\c2cc(OC)c(OC)c(OC)c2)C(=O)N1C", "qual": "<", "pIC50": 5.00}
{"smilesNotation": "O=C1NC(Nc2ccc3c(c2)OCO3)=N/C1=C\\c1ccc2c(c1)OCO2", "qual": "=", "pIC50": 5.30}
{"smilesNotation": "CN1C(=O)/C(=C/c2ccc3c(c2)OCO3)N=C1Nc1ccc2c(c1)OCO2", "qual": "<", "pIC50": 5.00}
{"smilesNotation": "COc1ccc(NC2=N/C(=C\\c3ccc4c(c3)OCO4)C(=O)N2C)cc1", "qual": "=", "pIC50": 5.39}
{"smilesNotation": "CCOC(=O)C(=O)NC1=N/C(=C\\c2ccc3c(c2)OCO3)C(=O)N1C", "qual": "=", "pIC50": 5.15}
{"smilesNotation": "O=C1NC(NCC2CC2)=N/C1=C\\c1ccc2c(c1)OCO2", "qual": "=", "pIC50": 5.82}
{"smilesNotation": "CNC1=N/C(=C\\c2ccc3c(c2)OCO3)C(=O)N1C", "qual": "=", "pIC50": 5.46}
{"smilesNotation": "CCNC1=N/C(=C\\c2ccc3c(c2)OCO3)C(=O)N1", "qual": "=", "pIC50": 5.51}
{"smilesNotation": "CCCNC1=N/C(=C\\c2ccc3c(c2)OCO3)C(=O)N1c1ccccc1", "qual": "<", "pIC50": 5.00}
{"smilesNotation": "CCCNC1=N/C(=C\\c2ccc3c(c2)OCO3)C(=O)N1C", "qual": "=", "pIC50": 5.35}
{"smilesNotation": "CN1C(=O)/C(=C/c2ccc3c(c2)OCO3)N=C1NCCO", "qual": "<", "pIC50": 5.00}
{"smilesNotation": "COc1ccc(NC2=N/C(=C\\c3ccc4c(c3)OCO4)C(=O)N2)cc1", "qual": "<", "pIC50": 5.00}
{"smilesNotation": "CC(C)CCNC1=N/C(=C\\c2ccc3c(c2)OCO3)C(=O)N1C", "qual": "=", "pIC50": 5.68}
{"smilesNotation": "CN1C(=O)/C(=C/c2ccc3c(c2)OCO3)N=C1NCCCO", "qual": "=", "pIC50": 5.19}
{"smilesNotation": "CN1C(=O)/C(=C/c2ccc3c(c2)OCO3)N=C1NCCN", "qual": "=", "pIC50": 5.51}
{"smilesNotation": "CCCNC1=N/C(=C\\c2ccccc2O)C(=O)N1C", "qual": "<", "pIC50": 5.00}
{"smilesNotation": "CC(=O)NC1=N/C(=C\\c2ccc3c(c2)OCO3)C(=O)N1C", "qual": "<", "pIC50": 5.00}
{"smilesNotation": "CCCNC1=N/C(=C\\c2ccc3c(c2)OC(F)(F)O3)C(=O)N1C", "qual": "<", "pIC50": 5.00}

Values from ChEMBL document CHEMBL1800025
